experiment: Pharmacokinetics of DSP-1053 in male rats; type: in vivo; settings: Crl:CD(SD), rat, plasma, iv, 1 mg/kg
recordedEndpoint: clearance (mL/min/kg)
Kindly answer with a numeric value in mL/min/kg, unit omitted.

Given the entry COCCOc1cc(CC2CCN(CCc3ccc4c(c3)C(=O)CCO4)CC2)ccc1Br.O=S(=O)(O)c1ccccc1 , report its measured clearance.
57.6

----------
target: Human dopamine D3 (Homo sapiens)
Sequence (P35462 whole entry): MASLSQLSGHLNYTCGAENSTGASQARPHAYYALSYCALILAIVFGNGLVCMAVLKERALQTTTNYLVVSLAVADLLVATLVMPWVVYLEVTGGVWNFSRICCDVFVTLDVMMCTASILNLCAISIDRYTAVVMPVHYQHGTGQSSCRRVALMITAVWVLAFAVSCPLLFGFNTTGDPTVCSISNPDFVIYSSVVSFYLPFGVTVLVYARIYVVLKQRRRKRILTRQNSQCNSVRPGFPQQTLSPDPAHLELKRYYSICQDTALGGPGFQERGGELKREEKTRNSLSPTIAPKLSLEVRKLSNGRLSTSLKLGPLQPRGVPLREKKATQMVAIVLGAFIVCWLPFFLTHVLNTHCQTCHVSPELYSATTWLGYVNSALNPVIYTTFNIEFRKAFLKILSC
recordedEndpoint: Ki (nM)
State just the number; it will be interpreted in nM.

// query Ki value for entry COCCOc1cc(CC2CCN(CCc3ccc4c(c3)C(=O)CCO4)CC2)ccc1Br.O=S(=O)(O)c1ccccc1 [DSP-1053]
249
